Assay: TNF-a-driven NF-kB reporter inhibitors, primary screen, selectivity assay for NOD1/NOD2 signaling inhibitor project, cell-based, HEK293T NF-kB-Luc, luminescence (AID 1852)
Conditions: TNF-a induced, 14 h, at 4 µM, stronger effect = higher value
Among all 2,500 compounds or so, about 1,100 (44%) were called active. The set was probably picked from earlier hits. Some of the results follow.
Recorded inhibition by entry
Numeric only. Scale: %

Worked cases, inhibition given:
>>> print(df.to_string())
                              record_smiles  experimental_endpoint  test_value
0  CN(C)S(=O)(=O)c1cccc(CSCc2cccc(S(=O)(=O)N(C)C)c2)c1             inhibition        42.8
1  CC(/C=C1\SC(=O)N(CCCC(=O)O)C1=O)=C\c1ccccc1             inhibition        79.5
2    Cc1cccc(N2CCN(C(=S)NCCc3ccccc3)CC2)c1C             inhibition       -31.3
3       S=C(NCCc1ccc(Cl)cc1)Nc1ccc(Cl)cc1Cl             inhibition       -10.9

Field: next molecule
Incoming: I'd like to know its inhibition. The molecule in question is COc1cccc(Nc2nc(NCCO)c3ccccc3n2)c1
Outgoing: 69.6

====

Test: TNF-a-driven NF-kB reporter inhibitors, primary screen, selectivity assay for NOD1/NOD2 signaling inhibitor project, cell-based, HEK293T NF-kB-Luc, luminescence (AID 1852)
Conditions: TNF-a induced, 14 h, at 4 µM, stronger effect = higher value
In all, about 2,500 compounds went through this assay and about 1,100 (44%) were called active. The set was probably picked from earlier hits. The list shows a part of the results.
Recorded inhibition by entry
Numeric only. Scale: %

Worked cases, inhibition given:
In [3]: df
Out[3]:
                                   compound  test_value
0            O=C(CCl)Nc1ccccc1Sc1ccc(Cl)cc1        33.5
1  CCCn1c(C)cc(C(=O)COc2ccc(C)nc2[N+](=O)[O-])c1C       -16.5
2  CCOC(=O)c1ccc(NC(=O)c2ccc(CN3CCc4ccccc4C3)cc2)cc1        46.3
3   O=C(CCl)Nc1ccc(Sc2ccc(NC(=O)CCl)cc2)cc1        81.3
4  O=C(Nc1ccccc1C(=O)O)c1cc(S(=O)(=O)Nc2ccccc2)ccc1Cl        58.9
5  Cc1ccc(S(=O)Cc2ccc(C(=O)N3CCN(C4CCCCC4)CC3)o2)cc1 (stereo not given)       -23.1

Incoming: I'd like to know its inhibition. The compound in question is O=C(CCl)Nc1cc(S(=O)(=O)N2CCCCCC2)ccc1Cl
Outgoing: 17.6

====

Assay: TNF-a-driven NF-kB reporter inhibitors, primary screen, selectivity assay for NOD1/NOD2 signaling inhibitor project, cell-based, HEK293T NF-kB-Luc, luminescence (AID 1852)
Details: TNF-a induced, 14 h, at 4 µM, stronger effect = higher value
Out of some 2,500 compounds screened, about 1,100 (44%) were called active. The set was probably picked from earlier hits. This is one part of the list.
experimental-endpoint: inhibition (%)
Numeric only. Scale: %

>>> print(df.to_string())
                                   compound  unit_name  test_value
0  CCOc1ccccc1N1CCN(C(=O)c2cc(-c3cc(OC)ccc3OC)nc3ccccc23)CC1          %         1.3
1  Cc1ccc(NC(=O)CSc2ncnc3ccccc23)cc1S(=O)(=O)N1CCCCC1          %        57.7
2   Cc1ccc2[nH]c3c(N4CCc5ccccc5C4)ncnc3c2c1          %        83.8
3  Cc1ccc(NC(=O)c2ccccc2NS(=O)(=O)c2ccc(F)cc2)cc1S(=O)(=O)N1CCCCC1          %        81.2
4  CN(C)S(=O)(=O)c1ccc(C(=O)Nc2nc(-c3cc4ccccc4o3)cs2)cc1          %        36.3

Incoming: I'd like to know its inhibition. The compound in question is Oc1c(CN2CCN(c3ccccc3)CC2)cc(Br)c2cccnc12
Outgoing: 15.7

Incoming: Same for Cn1nccc1C(=O)N1CCN(c2ccccc2F)CC1
Outgoing: -23.6

Incoming: Same for CC1=CC(C)(C)Nc2ccc(OC(=O)CN3C(=O)C4CCCCC4C3=O)cc21 (configuration not stated)
Outgoing: 42.7

Incoming: Same for CC1=CC(C)(C)Nc2ccc(OC(=O)CN3C(=O)CCC3=O)cc21
Outgoing: 86.9

Incoming: Same for COc1cccc(C(C)NC(=O)Nc2ccccc2Cl)c1 (configuration not stated)
Outgoing: 37.3

Incoming: Same for CCc1ccc(S(=O)(=O)/N=C2\C=C(Nc3ccc(O)cc3)C(=O)c3ccccc32)cc1
Outgoing: 106

Incoming: Same for Cc1ccc(NC(=O)c2ccccc2NS(=O)(=O)c2ccc(Cl)s2)cc1S(=O)(=O)N1CCOCC1
Outgoing: 84.3

Incoming: Same for COCCCNC(=O)c1sc2ncnc(N3CCc4ccccc4C3)c2c1C
Outgoing: 44.9

Incoming: Same for O=c1c(-c2ccc(Cl)cc2)coc2c(CN3CCCCC3)c(O)ccc12
Outgoing: 37.4

Incoming: Same for O=[N+]([O-])c1cc([N+](=O)[O-])c2oc(-c3ccccc3)c(Br)c2c1O
Outgoing: 66

Incoming: Same for O=C(/C=C\c1ccco1)Nc1nc(-c2ccc3ccccc3c2)cs1
Outgoing: 36.9

Incoming: Same for COc1ccc(NS(=O)(=O)c2cccc(NC(=O)c3ccc(Cl)nc3)c2)cc1
Outgoing: 42

Incoming: Same for Nc1[nH]n2c(=O)cc(-c3ccccc3)nc2c1N=Nc1ccc2c(c1)OCO2
Outgoing: 50.6

Incoming: Same for O=C1OCCC1Sc1nnc(-c2ccc(Cl)cc2Cl)o1 (configuration not stated)
Outgoing: 35.1
